Where do these numbers come from? They come from patent US12473290B2.

test system: IFNα Kit225 Reporter (Kit225 T cells with a stably-integrated STAT-dependent luciferase reporter, stimulated with IFNα); assay: Kit225 T Cell Assay, IFNα-stimulated STAT-dependent luciferase reporter; type: cell-based; settings: 200 U/mL human recombinant IFNα, 5-6 hours, luciferase expression
Assay Metric: IC50 (nM)

Reference set (2 entries):
### Prompt Find the recorded IC50 belonging to "N#Cc1cnc2c(Nc3ccc(C(=O)N4C[C@H]5CC[C@@H]4C5)c(OCC(F)F)n3)cc(N[C@@H]3CCCC[C@H]3O)nn12" and report it.
### Response 580

### Prompt Another: "N#Cc1cnc2c(Nc3cccc(N)n3)cc(N[C@@H]3CCCC[C@H]3O)nn12"
### Response 340

1 = COCCNC(=O)c1ccc(Nc2cc(N[C@@H]3CCCC[C@H]3O)nn3c(C#N)cnc23)nc1N(C)C
2 = CC(C)(C)C(=O)Nc1cccc(Nc2cc(NCC3CC3)nn3c(C#N)cnc23)n1
3 = N#Cc1cnc2c(Nc3ccc(C(=O)N4CCCC4)cn3)cc(NC3CCOCC3)nn12
### Prompt Put the items in sequence by IC50, from largest down. // list labels; follow requested order
### Response 1, 3, 2
